measured_target: GDP-bound KRAS protein (aa 1-169), containing both G12D and C118A amino acid substitutions (Homo sapiens, UniProt P01116, C118A/G12D)
Sequence (P01116 1-169 isoform P01116-2 G12D/C118A): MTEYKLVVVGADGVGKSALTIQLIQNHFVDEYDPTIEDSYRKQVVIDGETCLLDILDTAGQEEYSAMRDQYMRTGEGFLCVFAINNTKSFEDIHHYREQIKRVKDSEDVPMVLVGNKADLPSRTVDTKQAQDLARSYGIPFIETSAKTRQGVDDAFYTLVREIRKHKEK
procedure_text: KRAS G12D Coupled Nucleotide Exchange Assay
Format: biochemical
recorded_conditions: 2 h compound pre-incubation; SOS-mediated nucleotide exchange, cRAF AlphaScreen readout
reported_metric: Avg 2 h Coupled Exchange IC50

INSERT INTO assay_data (compound, reported_value) VALUES
  ('CN1CCC[C@H]1COc1nc(N2CCN[C@@H](CC#N)C2)c2cc(Cl)c(-c3cccc4sc(N)nc34)c(F)c2n1 [Example 26]', '0.409 µM'),
  ('CN1CC[C@@H](COc2nc(N3CCNCC3)c3cc(Cl)c(-c4cccc5sc(N)nc45)c(F)c3n2)C1 [Example 53]', '0.075 µM');

Q: What does the record list as Avg 2 h Coupled Exchange IC50 for Nc1nc2c(-c3c(Cl)cc4c(N5CCNCC5)nc(N5CC(N6CCCC(O)C6)C5)nc4c3F)cccc2s1 (stereo not drawn) [Example 92] ?
A: 1.02 µM

* * *

measured_target: GDP-bound KRAS protein (aa 1-169), containing both G12D and C118A amino acid substitutions (Homo sapiens, UniProt P01116, C118A/G12D)
procedure_text: KRAS G12D Coupled Nucleotide Exchange Assay
Assay type: biochemical
recorded_conditions: 2 h compound pre-incubation; SOS-mediated nucleotide exchange, cRAF AlphaScreen readout
reported_metric: Avg 2 h Coupled Exchange IC50 (µM)
Record the value in µM, omitting the unit from your answer.

The following molecules have reported results that may help.
INSERT INTO results (molecule, unit_descriptor, reported_value) VALUES
  ('Nc1nc2c(-c3c(Cl)cc4c(N5CCNCC5)nc(N5CC(N6CCC(O)CC6)C5)nc4c3F)cccc2s1 [Example 83]', 'µM', 0.496),
  ('Nc1nc2c(-c3c(Cl)cc4c(N5CCNCC5)nc(OC[C@@H]5CCC(=O)N5)nc4c3F)cccc2s1 [Example 68]', 'µM', 0.718),
  ('CN1CC(F)(F)C[C@H]1COc1nc(N2CCNCC2)c2cc(Cl)c(-c3cccc4sc(N)nc34)c(F)c2n1 [Example 65]', 'µM', 0.504),
  ('CN1CCO[C@@H]2CN(c3nc(N4CCNCC4)c4cc(Cl)c(-c5cccc6sc(N)nc56)c(F)c4n3)C[C@@H]21 (relative stereo) [Example 103]', 'µM', 1.71),
  ('Nc1nc2c(-c3c(Cl)cc4c(N5CCCNC(=O)C5)nc(OC[C@@]56CCCN5C[C@H](F)C6)nc4c3F)ccc(F)c2s1 [Example 4]', 'µM', 0.005);

Continue with the next molecule.
Q: What does the record list as Avg 2 h Coupled Exchange IC50 for CN1CCC[C@H]1COc1nc2c(F)c(-c3ccc(F)c4sc(N)nc34)c(Cl)cc2c(N2CCNCC2)c1C#N [Example 157] ?
A: 0.023

* * *

measured_target: His-tagged KRAS G12D protein (Homo sapiens, UniProt P01116, G12D)
Sequence (P01116 1-188 isoform P01116-2 G12D): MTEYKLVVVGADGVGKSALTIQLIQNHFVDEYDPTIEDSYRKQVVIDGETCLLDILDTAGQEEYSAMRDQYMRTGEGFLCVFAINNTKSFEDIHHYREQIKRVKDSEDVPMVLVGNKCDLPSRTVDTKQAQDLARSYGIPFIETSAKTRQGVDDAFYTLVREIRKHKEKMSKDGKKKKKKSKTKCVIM
procedure_text: KRAS G12D TR-FRET Assay
recorded_conditions: biotinylated KRPep-2d substrate, 10 μM GDP
reported_metric: pIC50
Keep it numeric: pIC50 is minus log10 of the concentration in mol/L.

The following compounds have reported results that may help.
INSERT INTO measurements (compound, reported_value) VALUES
  ('CN1CCC[C@H]1COc1nc(N2CCNC3CC32)c2cc(Cl)c(-c3cccc4sc(N)nc34)c(F)c2n1 (stereo partly drawn) [Example 20]', 6.77),
  ('Nc1nc2c(-c3c(Cl)cc4c(N5CCNC(=O)CC5)nc(OCC56CCCN5CCC6)nc4c3F)ccc(F)c2s1 [Example 13]', 7.66);

Continue with the next compound.
Q: Missing value: pIC50, His-tagged KRAS G12D protein (Homo sapiens, UniProt P01116, G12D), entry Nc1nc2c(-c3c(Cl)cc4c(N5CCNCC5)nc(OCC56CCCN5CCC6)nc4c3F)cccc2s1 [Example 44] . Fill in?
A: 7.52

* * *

measured_target: GDP-bound KRAS protein (aa 1-169), containing both G12D and C118A amino acid substitutions (Homo sapiens, UniProt P01116, C118A/G12D)
procedure_text: KRAS G12D Coupled Nucleotide Exchange Assay
Assay type: biochemical
recorded_conditions: 2 h compound pre-incubation; SOS-mediated nucleotide exchange, cRAF AlphaScreen readout
reported_metric: Avg 2 h Coupled Exchange IC50 (nM)
Record the value in nM, omitting the unit from your answer.

The following compounds have reported results that may help.
INSERT INTO results (sample_smiles, reported_metric, unit_descriptor, reported_value) VALUES
  ('Nc1nc2c(-c3c(Cl)cc4c(N5C[C@H]6CC[C@@H](C5)N6)nc(OC[C@@]56CCCN5C[C@H](F)C6)nc4c3F)ccc(F)c2s1', 'Avg 2 h Coupled Exchange IC50', 'nM', 2),
  ('Nc1nc2c(-c3c(Cl)cc4c(N5[C@@H]6CNC[C@H]5COC6)nc(OC[C@]56CCCN5C[C@H](F)C6)nc4c3F)ccc(F)c2s1', 'Avg 2 h Coupled Exchange IC50', 'nM', 6);

Q: What does the record list as Avg 2 h Coupled Exchange IC50 for `CCc1cc2c(N3[C@@H]4CC[C@H]3CNC4)nc(OC[C@@]34CCCN3C[C@H](F)C4)nc2c(F)c1-c1ccc(F)c2sc(N)nc12` ?
A: 4

* * *

measured_target: GDP-bound KRAS protein (aa 1-169), containing both G12D and C118A amino acid substitutions (Homo sapiens, UniProt P01116, C118A/G12D)
procedure_text: KRAS G12D Coupled Nucleotide Exchange Assay
Assay type: biochemical
recorded_conditions: 2 h compound pre-incubation; SOS-mediated nucleotide exchange, cRAF AlphaScreen readout
reported_metric: Avg 2 h Coupled Exchange IC50 (nM)
Record the value in nM, omitting the unit from your answer.

INSERT INTO assay_data (compound, unit_descriptor, reported_value) VALUES
  ('Nc1nc2c(-c3c(Cl)cc4c(N5C6CCNCC5CC6)nc(OC[C@@]56CCCN5C[C@H](F)C6)nc4c3F)ccc(F)c2s1 (single isomer, unassigned) [Example 33]', 'nM', 10);

Q: What does the record list as Avg 2 h Coupled Exchange IC50 for `C=Cc1cc2c(N3C[C@H]4CC[C@@H](C3)N4)nc(OC[C@@]34CCCN3C[C@H](F)C4)nc2c(F)c1-c1ccc(F)c2sc(N)nc12` ?
A: 6

Q: What does the record list as Avg 2 h Coupled Exchange IC50 for `Nc1nc2c(-c3ccc4c(N5C[C@H]6CC[C@@H](C5)N6)nc(OC[C@@]56CCCN5C[C@H](F)C6)nc4c3)ccc(F)c2s1` ?
A: 6

Q: What does the record list as Avg 2 h Coupled Exchange IC50 for `Nc1nc2c(-c3c(Cl)cc4c(N5C[C@H]6CC[C@@H](C5)N6)cc(OC[C@@]56CCCN5C[C@H](F)C6)nc4c3F)ccc(F)c2s1` ?
A: 24

* * *

measured_target: GDP-bound KRAS protein (aa 1-169), containing both G12D and C118A amino acid substitutions (Homo sapiens, UniProt P01116, C118A/G12D)
procedure_text: KRAS G12D Coupled Nucleotide Exchange Assay;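 also: IC50 obtained by fitting the AlphaScreen signal with a four-parameter logistic curve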
Assay type: biochemical
recorded_conditions: 2 h compound pre-incubation; SOS-mediated nucleotide exchange, cRAF AlphaScreen readout
Reported Avg 2 h Coupled Exchange IC50 by item:
Record the value in nM, omitting the unit from your answer.

The following compounds have reported results that may help.
INSERT INTO results (compound, unit_descriptor, reported_value) VALUES
  ('CN1CCC[C@H]1COc1nc(C2=CCNC2)c2cc(Cl)c(-c3cccc4sc(N)nc34)c(F)c2n1', 'nM', 74),
  ('CN1CCC[C@H]1COc1nc(N2C3CNCC2C3)c2cc(Cl)c(-c3cccc4sc(N)nc34)c(F)c2n1', 'nM', 49),
  ('CN1C[C@H](F)C[C@H]1COc1nc2c(F)c(-c3ccc(F)c4sc(N)nc34)c(Cl)cc2c(N2[C@@H]3CC[C@H]2CNC3)c1C#N', 'nM', 578),
  ('Nc1nc2c(-c3cc4nc(OC[C@@]56CCCN5C[C@H](F)C6)nc(N5[C@@H]6CC[C@H]5CNC6)c4cc3F)ccc(F)c2s1', 'nM', 11);

Continue with the next compound.
Q: What does the record list as Avg 2 h Coupled Exchange IC50 for Nc1nc2c(-c3c(Cl)cc4c(N5C6CCNCC5CC6)nc(OC[C@@]56CCCN5C[C@H](F)C6)nc4c3F)ccc(F)c2s1 (single isomer, unassigned) [Example 32] ?
A: 16

* * *

Reported IC50 by item:
measured_target: His-tagged KRAS G12D protein (Homo sapiens, UniProt P01116, G12D)
procedure_text: KRAS G12D TR-FRET Assay;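 also: europium anti-His antibody paired with streptavidin-d2 as FRET partners, initial 30 min incubation, then peptide 1 h and detection reagents 1 h, all at room temperature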
recorded_conditions: biotinylated KRPep-2d substrate, 10 μM GDP
Record the value in µM, omitting the unit from your answer.

The following compounds have reported results that may help.
INSERT INTO results (compound, reported_metric, reported_value) VALUES
  ('Nc1nc2c(-c3c(Cl)cc4c(N5[C@@H]6CNC[C@H]5COC6)nc(OC[C@]56CCCN5C[C@H](F)C6)nc4c3F)ccc(F)c2s1', 'IC50', 0.007),
  ('Nc1nc2c(-c3cc4nc(OC[C@@]56CCCN5C[C@H](F)C6)nc(N5C[C@H]6CC[C@@H](C5)N6)c4cc3F)ccc(F)c2s1', 'IC50', 0.003),
  ('CN1CCC[C@H]1COc1nc(C2=CCNCC2)c2cc(Cl)c(-c3cccc4sc(N)nc34)c(F)c2n1', 'IC50', 0.079),
  ('CN1CCC[C@H]1COc1nc(N2C3CNCC2C3)c2cc(Cl)c(-c3cccc4sc(N)nc34)c(F)c2n1', 'IC50', 0.158),
  ('Nc1nc2c(-c3cc4nc(OC[C@@]56CCCN5C[C@H](F)C6)nc(N5[C@@H]6CC[C@H]5CNC6)c4cc3F)ccc(F)c2s1', 'IC50', 0.03);

Continue with the next compound.
Q: What does the record list as IC50 for Nc1nc2c(-c3c(Cl)cc4c(N5CC6CCC(C5)NC6)nc(OC[C@@]56CCCN5C[C@H](F)C6)nc4c3F)ccc(F)c2s1 (stereo partly drawn) ?
A: 0.006
